Target: T1, Orencia
T1 sequence (chain, INN chains, looked up, looked up): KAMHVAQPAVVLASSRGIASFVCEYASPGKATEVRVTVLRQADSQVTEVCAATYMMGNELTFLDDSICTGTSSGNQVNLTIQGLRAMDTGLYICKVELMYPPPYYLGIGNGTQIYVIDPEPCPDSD
Assay: ELISA, signal on Orencia over SA
Procedure: 10 μL of E. coli cultured medium was added with 90 μL of PBS and 40 μL of lysis reagent (20 μL BugBuster Protein Extraction Reagent (Novagen), 20 μL Lysozyme solution 2.5 mg/mL) to lyse E. coli cells for 1 hour at room temperature. […] The plates were washed 5 times with 100 μL/well of TBST, and binding of cyclic peptides to the antigen was detected by 20 μL/well of chromogenic substrate (0.4 mg/mL 3,3′,5,5′-Tetramethyl-benzidine, 0.01% hydrogen peroxide). […]
S/N(SA) strictly less than 10 = Satisfied. Otherwise Not satisfied.

| BINDER | GROUP |
| --- | --- |
| GSCMHPFLLVASHHFCRG (peptide, not shown: large carriers; small tags and cut ends, MBP fusion; also called #38) [C4-302mat-2-100-33] | Satisfied |

query: Regarding GGCMHPFLRVVSHHFCGG (peptide, not shown: large carriers; small tags and cut ends, MBP fusion; also called #32) [C4-302mat-1-1-37] , kindly confirm whether its S/N(SA) is beneath 10.
result: Not satisfied

query: Another binder to look at: GGCMHPFLPVTSHHFCGG (peptide, not shown: large carriers; small tags and cut ends, MBP fusion; also called #17) [C4-302mat-2-1-3]
result: Not satisfied

query: Do the same for GGCLHPFLPIVSHHFCGR (peptide, not shown: large carriers; small tags and cut ends, MBP fusion; also called clone #10; No. #10) [C4-302mat-3-100-44] please
result: Not satisfied

query: Entry GGCMHPFLLVVSRHFCGR (peptide, not shown: large carriers; small tags and cut ends, MBP fusion) [C4-302mat-2-100-40] please
result: Satisfied

query: Same question, GGCMHPFLPVVSRHFCGG (peptide, not shown: large carriers; small tags and cut ends, MBP fusion; also called #24) [C4-302mat-3-1-5] this time
result: Satisfied

query: Entry GGCLHPFLPVVSHHFCGD (peptide, not shown: large carriers; small tags and cut ends, MBP fusion; also called #8) [C4-302mat-2-1-2] please
result: Not satisfied

query: Same question for GGCMHPFLQVVSHHFCGS (peptide, not shown: large carriers; small tags and cut ends, MBP fusion; also called #26) [C4-302mat-2-1-35] please.
result: Not satisfied

query: Follow-up entry: GGCMHPFLKIASHHFCGG (peptide, not shown: large carriers; small tags and cut ends, MBP fusion; also called #36) [C4-302mat-3-1-8]
result: Satisfied

query: Try this binder too: GGCMHPFLPIASLHFCGR (peptide, not shown: large carriers; small tags and cut ends, MBP fusion; also called #20) [C4-302mat-3-1-23]
result: Not satisfied

query: And what about the binder GGCMHPFLRVVSHHFCGR (peptide, not shown: large carriers; small tags and cut ends, MBP fusion; also called #33) [C4-302mat-3-1-14] ?
result: Not satisfied

query: Next record, please: GGCKHPFLLIVSHHFCGR (peptide, not shown: large carriers; small tags and cut ends, MBP fusion; also called #45) [C4-302mat-3-100-39]
result: Satisfied

query: Try GGCMHPFLLTVSRHFCGG (peptide, not shown: large carriers; small tags and cut ends, MBP fusion; also called #44) [C4-302mat-3-1-11] next.
result: Satisfied

query: Also check GGCMHPFLQVVSHHFCGG (peptide, not shown: large carriers; small tags and cut ends, MBP fusion; also called #27) [C4-302mat-2-100-4]
result: Satisfied

query: Note, next up: GGCMHPFLPVVSHHFCGR (peptide, not shown: large carriers; small tags and cut ends, MBP fusion) [C4-302mat-3-100-37]
result: Not satisfied

// data source = patent US20240092836A1
